- Tested on: A498
- EXPERIMENT SUMMARY: AUC of dose-response viability curve, drug + dasatinib, normalised to DMSO (arbitrary (AUC of normalised viability)); higher = less growth inhibition
- EXPERIMENTAL CONDITIONS: treatment: drug + dasatinib (fixed dose, not stated); 5 days

{"columns": ["COMPOUND", "AUC of dose-response viability curve"],
 "data": [
  ["C=CC(=O)Nc1cc2c(Nc3ccc(F)c(Cl)c3)ncnc2cc1OCCCN1CCOCC1 [CI-1033 (Canertinib)] + Cc1nc(Nc2ncc(C(=O)Nc3c(C)cccc3Cl)s2)cc(N2CCN(CCO)CC2)n1 [dasatinib]", 2.74],
  ["Cc1ccc(NC(=O)c2ccc(CN3CCN(C)CC3)cc2)cc1Nc1nc(-c2cccnc2)cs1 [Masitinib (AB1010)] + Cc1nc(Nc2ncc(C(=O)Nc3c(C)cccc3Cl)s2)cc(N2CCN(CCO)CC2)n1 [dasatinib]", 3.05],
  ["Cc1ccc(Nc2nccc(N(C)c3ccc4c(C)n(C)nc4c3)n2)cc1S(N)(=O)=O.Cl [Pazopanib HCl] + Cc1nc(Nc2ncc(C(=O)Nc3c(C)cccc3Cl)s2)cc(N2CCN(CCO)CC2)n1 [dasatinib]", 3.16]
]}
